System: NCI-H226 lung
Test: NCI-60 one-dose screen, 48 h (100 = growth as untreated, 0 = no growth, -100 = all killed)
Conditions: 10 µM unless noted
The panel holds about 83,000 compounds, 20% with a hit somewhere; the sample as a whole holds those more often. Activity calls are given as the source filed them. The calls were made as follows: active = growth percent below 10; inactive = the rest.

compound | growth
CC(=O)Oc1cc2ccccc2cc1C(C)C | 101% (inactive)
CC1CCCCC[N+]12CCCC2 (centres undefined) | 93.6% (inactive)
Cc1cc2cn3c4ccc(O)cc4nc(N)c3c2cc1C | 45.9% (inactive)
COc1cc(C(=O)Nc2ccc(N(C)C)cc2)cc(OC)c1OC | 91% (inactive)

====

System: SW-620 colon
Assay: NCI-60 one-dose screen, 48 h
Conditions: 10 µM unless noted
The panel holds about 83,000 compounds, 20% with a hit somewhere; the sample as a whole holds those more often. Active and inactive are the calls of the source. Rule for the calls: active = growth percent below 10; inactive = the rest.
Outcomes: yes (active), no (inactive)

compound | system_name | assigned_label
COc1nc(OC)nc(-c2cc(C(=O)c3ccc(Br)cc3)n3cc(C)cc(C)c23)n1 | SW-620 colon | no
CCCCN(CCCC)CCCNc1c2c(nc3ccc(Cl)cc13)CCCC2 | SW-620 colon | no
O=C(O)c1ccc(Br)nc1 | SW-620 colon | no
CC(C)(C)c1cc(C[P+](c2ccc(Cl)cc2)(c2ccc(Cl)cc2)c2ccc(Cl)cc2)cc(C(C)(C)C)c1O | SW-620 colon | no
COC(=O)[C@H](Cc1cn(C)cn1)NC(=O)[C@H](CC(=O)OCc1ccccc1)NC(=O)Nc1cc(C(F)(F)F)cc(C(F)(F)F)c1 | SW-620 colon | yes
Nc1nc2c(c3ncncc13)C(c1cccc(C(F)(F)F)c1)Cc1ncncc1-2 (centres undefined) | SW-620 colon | no
Cc1ccc2c(O)c(O)cc(NC(C)CCCN)c2n1 (centres undefined) | SW-620 colon | no
CCN(CCO)CCNc1ccc(C)c2sc3cc(OC)ccc3c(=O)c12 | SW-620 colon | no
COc1ccc(C2C3(C#N)C(N)=NC(=C(C#N)C#N)C23C#N)cc1OC (centres undefined) | SW-620 colon | no
O=C(/C=C1\C(=O)N(Cc2ccc([N+](=O)[O-])cc2)c2ccccc21)c1ccc(OCCN2CCCCC2)cc1 | SW-620 colon | yes
COc1ccc(/C=C2\CCCC3=C2N=C2SC=NN2C3c2ccc(OC)c(OC)c2)cc1OC (centres undefined) | SW-620 colon | no
COc1cccc(NC(=O)NCCNc2nccc(-c3c(-c4ccc(F)cc4)nc4sccn34)n2)c1 | SW-620 colon | no
COc1cc2ncnc(-n3ncc4cc(NC(=O)Nc5ccc(Cl)c(C)c5)ccc43)c2cc1OC | SW-620 colon | no
CC(=O)Oc1cc2ccccc2cc1C(C)C | SW-620 colon | no

====

The following compounds are shown together with reported growth values.
Tested on: ACHN renal
Experiment: NCI-60 one-dose screen, 48 h (100 = growth as untreated, 0 = no growth, -100 = all killed)
Conditions: 10 µM unless noted
About 83,000 compounds went through this panel and 20% of them were active in at least one assay; those are over-represented in the sample as a whole.

compound | units | growth
O=C1c2ccccc2CCc2ccccc21 | % | 102
CCOc1ccc(N(C)c2ccc(/C=C/C3=[N+](C)c4ccccc4C3(C)C)cc2)cc1 | % | -95.9
COc1cc(-c2nc3c(c(C)nc4c3nnn4-c3ccccc3)c(=O)o2)cc(OC)c1OC | % | 103
CCOC(=O)NC1=NCC(C)(C)S1 | % | 107
CCOC(=O)C1=C(c2ccccc2)NC(=O)NC1CN1C(=O)c2ccccc2C1=O (configuration not stated) | % | 111
COC(=O)c1ccc(C(=Nc2ccc(N(C)C(=O)CN3CCN(C)CC3)cc2)c2c(O)[nH]c3ccc(C(=O)OC)cc23)cc1 | % | 18.6
O=C(CCC(=O)N(CCO)CCO)N(CCO)CCO | % | 107
O=C(CCl)NC1c2ccccc2Oc2ccccc21 | % | 72.4
CCOc1nc(-c2ccccc2)cc2c(O)c(C(=O)N/N=C/c3ccccc3O)[nH]c(=O)c12 | % | 107
C[C@]12C=CC(=O)C=C1[C@@H](F)C[C@@H]1[C@@H]2[C@@H](O)C[C@@]2(C)[C@H]1CC[C@]2(O)C(=O)CO | % | 99.4
O=C1C(Cl)=C(SC2=NCCN2)C(=O)c2ccccc21 | % | 83.5
O=C1/C(=C\c2cn(-c3nc(N4CCOCC4)nc(N4CCOCC4)n3)c3ccccc23)c2ccccc2N1c1c(Cl)cccc1Cl | % | 72.7

====

Tested on: HCT-15 colon
Assay: NCI-60 one-dose screen, 48 h (100 = growth as untreated, 0 = no growth, -100 = all killed)
Conditions: 10 µM unless noted
This is part of a sample that, as a whole, favours compounds with a hit. Of some 83,000 tested, about 20% had one in any assay. Active and inactive are the calls of the source. The calls were made as follows: active = growth percent below 10; inactive = the rest.

compound | growth
O=C(CBr)OCc1ccc([N+](=O)[O-])o1 | 93.9% (inactive)
CCCCCCCCCCC(C[N+](C)(C)C/C=C/c1ccccc1)C(O)c1ccccc1 (stereo not given) | 79.1% (inactive)
Cc1nc(NC(=O)NC2CCCCC2)sc1C(=O)NN | 91.5% (inactive)
CCOC(=O)c1c(C)oc2ncnc(Nc3ccc(C(=O)NCCc4ccccc4)cc3)c12 | 92.3% (inactive)
COc1cc(OC)cc(-c2ccc(-c3ccc(C(=N)N)cc3)s2)c1 | -79.6% (active)
COC(=O)c1ccc2[nH]c(O)c(C(=Nc3ccc(N(C)C(=O)CN4CCN(C)CC4)cc3)c3ccc(CCO)cc3)c2c1 | 82.1% (inactive)
COc1ccc(-c2nnc(SCC(=O)Nc3ccc(C(=O)/C=C/c4cc(OC)c(OC)c(OC)c4)cc3)n2-c2ccccc2)cc1OC | 8.91% [100 µM] (active)
CNc1ccc(Nc2ccc(S(=O)(=O)O)cc2)c2c1C(=O)c1ccccc1C2=O | 98.6% (inactive)
Nc1nc2c(c3cnccc13)C(c1cccc(Br)c1)Cc1cnccc1-2 (stereo not given) | 7.06% (active)
C[C@H]1C[C@@H](n2cnc3c(N)nccc32)[C@H](O)[C@@H]1O | 87.8% (inactive)
CCCCCCC(C(=O)OCC)(C(=O)OCC)C1CCCCCC1 | 97.5% (inactive)
COc1ccc2oc(=O)cc(CN3C(=O)S/C(=C\c4ccc(Cl)cc4)C3=O)c2c1 | 92.3% (inactive)
COc1cc2c(/C=C3\C(=O)Nc4ccc(Br)cc43)c(Cl)n(C)c2cc1C | 6.8% (active)
O=C(Nc1cccc2[nH]c(C(F)(F)F)nc12)c1ccc(F)cc1 | 96.9% (inactive)
CC(=O)NNC(=O)c1sc(NC(C)=O)nc1C | 95.7% (inactive)

====

System: RPMI-8226 leukemia
Experiment: NCI-60 one-dose screen, 48 h (100 = growth as untreated, 0 = no growth, -100 = all killed)
Details: 10 µM unless noted
Compounds without any hit were thinned out: in the full panel of roughly 83,000, 20% have a hit.
Assign fulfilled whenever growth does not fall below 90%; assign not fulfilled whenever it does.

compound | assigned_label
Nc1ncn([C@@H]2O[C@H](CO)[C@@H](O)C2(F)F)c(=O)n1 | not fulfilled
Cn1c2ccccc2c2ccccc21 | fulfilled
COC(=O)C(N)CC(C)C (stereo unspecified) | fulfilled
Cc1ncc(C(=O)Nc2ccc(CN3CCN(C)CC3)c(C(F)(F)F)c2)cc1C#Cc1cnc(NC2CC2)c2ncccc12 | not fulfilled
CC(O)CN(CCO)CCN(CCO)CC(C)O (stereo unspecified) | fulfilled
O=C1C(=O)c2ccccc2C(O)=C1CCCc1ccc(Oc2ccccc2)cc1 | not fulfilled
O=C(N/N=C\c1ccc(-c2ccc(Br)cc2)o1)c1cc2oc(-c3cccc(C(F)(F)F)c3)cc2[nH]1 | fulfilled
COC(=O)c1ccc(C(=Nc2ccc(N(C)C(=O)CN3CCN(C)CC3)cc2)c2c(O)[nH]c3ccc(C(=O)OC)cc23)cc1 | not fulfilled
[2H]c1nc(=Nc2cc(NC(=O)C=C)c(N(C)CCN(C)C)cc2OC)[nH]c(-c2cn(C([2H])([2H])[2H])c3ccccc23)c1[2H] | not fulfilled
CCCCN(CCCC)c1ccc(C(=O)O)cc1 | fulfilled
COC(=O)c1ccc2[nH]c(O)c(C(=Nc3ccc(N(C)C(=O)CN4CCN(C)CC4)cc3)c3ccc(CCO)cc3)c2c1 | not fulfilled

====

Test system: MCF7 breast
Assay: NCI-60 one-dose screen, 48 h (100 = growth as untreated, 0 = no growth, -100 = all killed)
Settings: 10 µM unless noted
The panel holds about 83,000 compounds, 20% with a hit somewhere; the sample as a whole holds those more often.
Label fulfilled when growth < 50%; otherwise not fulfilled.

smiles_text | system_name | assigned_label
COc1cc(-c2nc3c(c(C)nc4c3nnn4-c3ccccc3)c(=O)o2)cc(OC)c1OC | MCF7 breast | not fulfilled
COc1cc(OC)c(/C=C/c2ccc3ccccc3[n+]2C)c(OC)c1 | MCF7 breast | fulfilled
COc1ccc(Cn2cc3c(c2-c2ccc(O)cc2)CCc2cnoc2-3)cc1 | MCF7 breast | fulfilled
CCOC(=O)c1sc(NS(=O)(=O)c2ccccc2)nc1C | MCF7 breast | not fulfilled
O=C(Nc1ccc(Cl)cn1)C1(c2ccccc2)CCCCC1 | MCF7 breast | not fulfilled
O=C(N/N=C/c1cc(Cl)ccc1O)C(=O)N/N=C/c1cc(Cl)ccc1O | MCF7 breast | not fulfilled

// provenance: PubChem BioAssay (NCI)
